targetSystem: TLR8 (Homo sapiens, UniProt Q9NR97)
assayName: HEK-TLR8 NF-κB-luciferase reporter, R848 or Motolimod stimulation (potentiation or inhibition)
Type: cell-based
Design: expressed in transfected cells; host or cells: 293XLhTLR8 (HEK293)
experimentalContext: ASO 100 nM; relative to R848 only
assayReadout: TLR8 100 nM (averaged NF-κB-Luciferase level relative to R848 condition, fold increase)
# answer = number (no unit)

Recorded results for 3 sequences are shown here.
{"columns": ["orderedResidues", "numericResult"],
 "data": [
  ["CGGCCTCGGAAGCTCT (antisense; LNA-modified, pattern not given here) [MB21D1-168 LNA V1]", 0.402],
  ["ATGGCCTCCCATCTCC (antisense; LNA-modified, pattern not given here) [HPRT LNA-330 V1]", 0.369],
  ["CATCCACCACGTCGTC (antisense; LNA-modified, pattern not given here) [EGFR-3266 LNA V1]", 0.778]
]}

query: For TLR8 (Homo sapiens, UniProt Q9NR97), provide TLR8 100 nM (averaged NF-κB-Luciferase level relative to R848 condition, fold increase) of AACCCCTTTCACCATC (antisense; LNA-modified, pattern not given here) [MB21D1-689 LNA KL] please.
result: 1.871

* * *

targetSystem: human TLR7 (Homo sapiens)
Construct: HA; host or cells: 293XL-hTLR7-HA (HEK293)
assayName: HEK-TLR7 NF-κB-luciferase reporter, R848 stimulation
Type: cell-based
experimentalContext: ASO 100 nM; relative to R848 only, given as fraction
// TLR7 100 nM (averaged NF-κB-Luciferase level relative to R848 condition) lookup, one value per entry
# answer = number (no unit)

{"columns": ["orderedResidues", "targetSystem", "numericResult"],
 "data": [
  ["CAACACTTCGTGGGGT (antisense; LNA-modified, pattern not given here) [HPRT LNA-667 V1]", "human TLR7 (Homo sapiens)", 0.663],
  ["AATCCAACAAAGTCTG (antisense; LNA-modified, pattern not given here) [HPRT LNA-692 KL]", "human TLR7 (Homo sapiens)", 0.727],
  ["GCCATGTTTCTTCTTG (antisense; LNA-modified, pattern not given here) [MB21D1-1248 LNA KL]", "human TLR7 (Homo sapiens)", 0.816],
  ["TGGCCTCCCATCTCCT (antisense; LNA-modified, pattern not given here) [HPRT LNA-329 V1]", "human TLR7 (Homo sapiens)", 0.877],
  ["GTCAAGGGCATATCCT (antisense; LNA-modified, pattern not given here) [HPRT LNA-732 KL]", "human TLR7 (Homo sapiens)", 0.650]
]}

query: For human TLR7 (Homo sapiens), provide TLR7 100 nM (averaged NF-κB-Luciferase level relative to R848 condition) of TCTTCATCGGCCCTGC (antisense; LNA-modified, pattern not given here) [CAMSAP1-2112 LNA V1] please.
result: 0.820

query: Can you check GTCTTGGCTTCGTGGA (antisense; LNA-modified, pattern not given here) [MB21D1-522 LNA V1] next?
result: 0.652

* * *

targetSystem: human TLR7 (Homo sapiens, UniProt Q9NYK1)
Construct: HA; host or cells: 293XL-hTLR7-HA (HEK293)
Sequence (Q9NYK1 27-1049): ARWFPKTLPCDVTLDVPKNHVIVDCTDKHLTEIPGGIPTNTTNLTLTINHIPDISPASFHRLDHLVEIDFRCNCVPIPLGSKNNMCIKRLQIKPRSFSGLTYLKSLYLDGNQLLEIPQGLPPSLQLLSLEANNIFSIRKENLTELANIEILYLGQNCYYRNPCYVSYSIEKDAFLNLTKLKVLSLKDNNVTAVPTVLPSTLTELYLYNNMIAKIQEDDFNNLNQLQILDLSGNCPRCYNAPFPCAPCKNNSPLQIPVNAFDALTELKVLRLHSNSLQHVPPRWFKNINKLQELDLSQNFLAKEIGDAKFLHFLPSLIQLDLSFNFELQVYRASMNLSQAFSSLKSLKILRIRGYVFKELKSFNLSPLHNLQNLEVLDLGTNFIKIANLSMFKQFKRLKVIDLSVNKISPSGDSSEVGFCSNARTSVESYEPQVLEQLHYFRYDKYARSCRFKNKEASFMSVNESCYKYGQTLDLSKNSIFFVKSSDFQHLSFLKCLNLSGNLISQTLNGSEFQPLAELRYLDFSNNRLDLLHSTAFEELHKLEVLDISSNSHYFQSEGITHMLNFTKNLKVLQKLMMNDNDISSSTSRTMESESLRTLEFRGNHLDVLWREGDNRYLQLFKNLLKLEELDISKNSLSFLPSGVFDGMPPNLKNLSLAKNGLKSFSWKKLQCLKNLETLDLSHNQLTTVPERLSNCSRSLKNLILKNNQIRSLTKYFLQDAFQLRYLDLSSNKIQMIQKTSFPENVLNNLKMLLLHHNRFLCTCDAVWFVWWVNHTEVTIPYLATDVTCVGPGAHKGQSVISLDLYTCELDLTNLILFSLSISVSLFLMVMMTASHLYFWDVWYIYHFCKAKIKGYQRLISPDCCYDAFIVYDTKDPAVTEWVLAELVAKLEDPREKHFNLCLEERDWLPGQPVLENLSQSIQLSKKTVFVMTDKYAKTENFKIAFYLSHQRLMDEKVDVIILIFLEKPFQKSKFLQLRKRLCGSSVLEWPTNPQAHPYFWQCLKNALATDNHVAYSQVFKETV
assayName: HEK-TLR7 NF-κB-luciferase reporter, R848 stimulation
Type: cell-based
experimentalContext: HEK-TLR7; 100 nM ASO; percentage of R848 without ASO (Alharbi et al., 2020)
In the oligonucleotide strings, read from the 5' end, every base follows the letter of its sugar. An asterisk marks phosphorothioate; unmarked linkages are phosphodiester. Other units and linkages are bracketed, terminal groups are in braces. A string of capitals states the bases alone. d = 2'-deoxy (DNA); m = 2'-O-methyl
assayReadout: TLR7-100 nM: averaged NF-κB-Luciferase relative to R848 (%)
The response must be a number in % with no trailing unit.

{"columns": ["substance", "scaleUnit", "numericResult"],
 "data": [
  ["mU*mG*mU*mG*mA*A*A*A*G*A*T*T*A*T*C*mU*mU*mC*mU*mU (UGUGAAAAGATTATCUUCUU; sugars from the 5' end m5 d10 m5, all phosphorothioate, methylation of C not given here) [[CDKN2B-AS1]2137]", "%", 34.51],
  ["mU*mC*mC*mC*mA*T*C*C*C*T*T*C*T*G*C*mU*mG*mA*mC*mA (UCCCATCCCTTCTGCUGACA; sugars from the 5' end m5 d10 m5, all phosphorothioate, methylation of C not given here) [[LINC-PINT]101]", "%", 43.08],
  ["mU*mC*mU*mC*mU*G*G*T*C*C*C*A*T*C*C*mC*mU*mU*mC*mU (UCUCUGGTCCCATCCCUUCU; antisense; sugars from the 5' end m5 d10 m5, all phosphorothioate, methylation of C not given here) [[LINC-PINT]108]", "%", 78.25]
]}

Attention now turns to another entry.
query: Give its TLR7-100 nM: averaged NF-κB-Luciferase relative to R848 value. Item: mC*mA*mG*mU*mC*T*C*C*A*T*G*T*C*C*C*mA*mG*mG*mC*mC (mC*mA*mG*mU*mC*dT*dC*dC*dA*dT*dG*dT*dC*dC*dC*mA*mG*mG*mC*mC; antisense) [[CDKN2B-AS1]2233]
result: 47.75

* * *

// TLR8-500 nM: averaged NF-κB-Luciferase relative to R848 lookup, one value per entry
targetSystem: TLR8 (Homo sapiens)
Sequence (Q9NR97 27-1041): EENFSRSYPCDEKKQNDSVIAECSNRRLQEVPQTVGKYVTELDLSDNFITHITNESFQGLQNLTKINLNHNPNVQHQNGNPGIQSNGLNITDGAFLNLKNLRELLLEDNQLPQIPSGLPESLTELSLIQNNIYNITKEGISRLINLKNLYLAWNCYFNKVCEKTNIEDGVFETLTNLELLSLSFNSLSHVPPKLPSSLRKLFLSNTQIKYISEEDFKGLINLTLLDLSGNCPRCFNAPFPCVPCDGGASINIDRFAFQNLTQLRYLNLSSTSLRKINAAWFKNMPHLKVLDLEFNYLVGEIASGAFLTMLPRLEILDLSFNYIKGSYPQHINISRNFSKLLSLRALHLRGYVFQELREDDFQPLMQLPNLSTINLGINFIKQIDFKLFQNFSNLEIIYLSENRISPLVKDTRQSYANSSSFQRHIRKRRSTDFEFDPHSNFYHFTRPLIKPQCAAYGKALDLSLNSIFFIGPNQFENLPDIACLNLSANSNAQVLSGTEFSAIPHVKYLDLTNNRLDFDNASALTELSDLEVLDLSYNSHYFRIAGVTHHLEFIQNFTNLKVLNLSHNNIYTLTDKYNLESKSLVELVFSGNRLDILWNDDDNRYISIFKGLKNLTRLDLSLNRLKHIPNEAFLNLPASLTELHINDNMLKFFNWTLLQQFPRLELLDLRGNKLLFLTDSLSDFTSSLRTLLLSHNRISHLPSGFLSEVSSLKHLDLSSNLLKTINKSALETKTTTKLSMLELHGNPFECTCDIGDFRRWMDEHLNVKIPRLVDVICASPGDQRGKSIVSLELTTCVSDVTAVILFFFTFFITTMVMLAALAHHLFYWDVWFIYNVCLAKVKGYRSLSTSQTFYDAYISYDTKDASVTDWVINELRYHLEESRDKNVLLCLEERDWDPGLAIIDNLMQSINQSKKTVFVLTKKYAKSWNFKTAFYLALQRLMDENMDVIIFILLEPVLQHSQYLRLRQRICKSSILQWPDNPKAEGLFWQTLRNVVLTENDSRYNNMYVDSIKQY
assayName: HEK-TLR8 NF-κB-luciferase reporter, R848 or Motolimod stimulation (potentiation or inhibition)
Type: cell-based
Parameters: expressed in transfected cells; host or cells: 293XLhTLR8 (HEK293)
experimentalContext: HEK-TLR8; 500 nM ASO; fold increase relative to R848 without ASO (Alharbi et al., 2020)
In the oligonucleotide strings, read from the 5' end, every base follows the letter of its sugar. An asterisk marks phosphorothioate; unmarked linkages are phosphodiester. Other units and linkages are bracketed, terminal groups are in braces. A string of capitals states the bases alone. d = 2'-deoxy (DNA); m = 2'-O-methyl
The response must be a number in fold with no trailing unit.

query: Give its TLR8-500 nM: averaged NF-κB-Luciferase relative to R848 value. Item: mU*mG*mG*mC*mG*T*A*G*T*T*T*C*T*C*T*mU*mC*mC*mU*mC (mU*mG*mG*mC*mG*dT*dA*dG*dT*dT*dT*dC*dT*dC*dT*mU*mC*mC*mU*mC; antisense) [[LINC-PINT]937.1]
result: 4.25

query: Can you check mU*mG*mU*mG*mA*A*A*A*G*A*T*T*A*T*C*mU*mU*mC*mU*mU (UGUGAAAAGATTATCUUCUU; sugars from the 5' end m5 d10 m5, all phosphorothioate, methylation of C not given here) [[CDKN2B-AS1]2137] next?
result: 4.97

query: Can you check mU*mC*mU*mC*mU*G*G*T*C*C*C*A*T*C*C*mC*mU*mU*mC*mU (UCUCUGGTCCCATCCCUUCU; antisense; sugars from the 5' end m5 d10 m5, all phosphorothioate, methylation of C not given here) [[LINC-PINT]108] next?
result: 11.42

query: Can you check mG*mU*mU*mC*mA*G*T*C*A*G*A*T*C*G*C*mU*mG*mG*mG*mA (mG*mU*mU*mC*mA*dG*dT*dC*dA*dG*dA*dT*dC*dG*dC*mU*mG*mG*mG*mA) [[LINC-PINT]412 KL] next?
result: 1.70
